# System: CCRF-CEM
# Experiment notes: NCI tumour cell line growth inhibition, 48 h
Calls of active or inactive are those of the source. Rule as the data show it: active = GI50 up to about 1.1 µM and inactive = higher.
Assign a class; possible classes are 1.0 = active, 0.0 = inactive

{"Molecule": "Cn1c(-c2ccc[se]2)ccc1-c1ccc(CO)[se]1", "Target entity": "CCRF-CEM", "Group label": 0.0}
{"Molecule": "O=C(/C=C\\c1cccc2ccccc12)c1ccc(F)cc1", "Target entity": "CCRF-CEM", "Group label": 0.0}

// outcome(item) with item = `CCOC(=O)CCSS(=O)(=O)C(F)(F)F`
0.0

// outcome(item) with item = C#C[C@]1(O)CC[C@H]2[C@@H]3CCC4=C/C(=N/NC(=O)c5cccc6c(=O)c7ccccc7[nH]c56)CCC4[C@H]3CC[C@@]21C (some centres not stated)
0.0

// outcome(item) with item = `O=c1oc2ccccc2c2nc3ccccc3cc12`
0.0

// outcome(item) with item = `Cc1cc2c(cc1C)N1Cc3c(ccc(C)c3C)N(C2)C1.Cc1cc2c(cc1C)N1Cc3cc(C)c(C)cc3N(C2)C1`
0.0

// outcome(item) with item = `O=C(NC(=O)c1ccccc1[N+](=O)[O-])Nc1ccc(Oc2ncc(Br)cn2)c(Cl)c1`
1.0

// outcome(item) with item = `Oc1ccc(CCNCc2cc3c(cc2Br)OCO3)cc1`
0.0

// outcome(item) with item = CCOC(OCC)N1C(=O)C2(C(OCC)OCC)CC3C(OC(=O)N3N)c3cccc1c32 (configuration not stated)
0.0

// outcome(item) with item = `N=C(N)N/N=C/c1c(Cl)nc2sccn12`
0.0

// outcome(item) with item = CSCCCNC(=O)c1csc([C@@H](CSC)NC(=O)CCNC(=O)[C@@H](NC(=O)OCC(Br)(Br)Br)C(C)O)n1 (some centres not stated)
0.0

// outcome(item) with item = CC(=O)OCC1OC(n2c(N)c(C#N)c(-c3cccc(Cl)c3)c(C#N)c2=S)C(OC(C)=O)C(OC(C)=O)C1OC(C)=O (configuration not stated)
0.0

// outcome(item) with item = `CCOC(=O)C(C(=O)OCC)=C1N[C@H](C(=O)OCC)CS1`
0.0

// outcome(item) with item = `CC(C)NCCNC(=O)c1ccccc1Nc1c(Cl)cccc1Cl`
0.0

// outcome(item) with item = CC12CP(=O)(c3ccccc3)CC1c1ccccc1C2c1ccccc1 (configuration not stated)
0.0

// outcome(item) with item = `CN/N=C(\C)c1c(O)cc(C)oc1=O`
0.0

// outcome(item) with item = `Cc1nn(-c2ccccc2)c(C)c1/C=N/N=C1\S/C(=C\c2ccc(Cl)cc2)C(=O)N1c1ccccc1`
0.0
